Listed next: entries and their corresponding IFNy Concentration pg/ml, Day 9, PB.
# measurement.target: canine CD3 on canine T cells (canine PBMC) (canine, UniProt P27597 22-202)
# Sequence (P27597 22-202 limits assumed, chain 1 of 3): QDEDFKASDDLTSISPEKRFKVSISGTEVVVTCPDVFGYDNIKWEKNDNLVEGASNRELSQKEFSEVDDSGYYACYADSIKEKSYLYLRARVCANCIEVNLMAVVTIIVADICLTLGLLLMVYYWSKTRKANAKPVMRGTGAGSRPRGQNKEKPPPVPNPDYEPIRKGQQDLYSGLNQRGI
# Sequence (chain, as listed by the source limits assumed, chain 2 of 3): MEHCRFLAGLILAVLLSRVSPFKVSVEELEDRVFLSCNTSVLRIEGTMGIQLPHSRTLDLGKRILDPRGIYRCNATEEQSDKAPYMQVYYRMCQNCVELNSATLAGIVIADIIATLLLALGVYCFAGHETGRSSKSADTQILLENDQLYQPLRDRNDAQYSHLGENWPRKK
# Sequence (chain, as listed by the source limits assumed, chain 3 of 3): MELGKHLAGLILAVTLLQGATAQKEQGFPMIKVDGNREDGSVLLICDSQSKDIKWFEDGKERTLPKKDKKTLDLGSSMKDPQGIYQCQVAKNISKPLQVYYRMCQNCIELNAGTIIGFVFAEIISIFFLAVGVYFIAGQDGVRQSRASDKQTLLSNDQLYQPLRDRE
# procedure.text: cell-based or functional assay
Just the number in pg/mL, nothing appended.

binder | unit.of.measure | number
PMX168 (monospecific anti-canine CD3, canine IgG-B effector function deficient Fc) (antibody, V domains shown) VH: ELTLQESGPGLVKPSQTLSLTCVVSGGSVTRSYYWNWIRQRPGRGLEWMGYWTGTTNYNPAFQGRISITADTAKNQCSLQLSSMTTEDTAVYYCAREGGKLLGAFGHWGQGTLVTVSS VL: SYVLTQLPSKNVTLKQPAHITCGGDKIGSKSVHWYQQKLGQAPVLIIYYDSSRPTGIPERFSGANSGNTATLTISGALAEDEADYYCQVWDSSAKASVFGGGTHLTVL | pg/mL | 2450

Lab note: next binder to report on.
Qu. Identify measured IFNy Concentration pg/ml, Day 9, PB associated with PMX175 (monospecific anti-canine CD3, canine IgG-B effector function deficient Fc) (antibody, V domains shown) VH: ELTLQESGPGLVKPSQTLSLTCVVSGGSVTSTYYWNWIRQRPGRGLEWMGYWTGTTNYNPAFQGRISITADTAKNQFSLQLSSMTTEDTAVYYCAREDLVTVGSGAFNYWGQGTLVTVSS VL: SYVLTQLPSKNVTLKQPAHITCGGDNIGSKSVHWYQQKLGQAPVLIIYYDSSRPTGIPERFSGANSGNTATLTISGALAEDEADYYCQVWDSSATWVFGEGTQLTVL
Ans. 706
